Just for reference, patent US6057325A is where these values come from.

System: serotonin 5HT2 -receptors
procedure-summary: Combined ATN test in rats: tryptamine (TRY) challenge, central and peripheral serotonin antagonism
Format: in vivo
measurement-conditions: subcutaneous pretreatment, dose protecting 50% of animals, peripheral serotonin antagonistic activity
TRY hyperaemia ED50 reference
The response must be a number in mg/kg with no trailing unit.

>>> value_reported("Cc1nc2sccn2c(=O)c1CCN1CC[C@@H]2[C@@H](C1)c1ccccc1N2C (relative stereo)")
0.31

Problem: Fill in the recorded TRY hyperaemia ED50 for this compound, with serotonin 5HT2 -receptors as test system: Cc1nc2scc(C)n2c(=O)c1CCN1CC[C@H]2Nc3ccc(F)cc3[C@@H]2C1 (relative stereo)
Solution: 0.015
